test system: KM12 colon; test: NCI-60 one-dose screen, 48 h (100 = growth as untreated, 0 = no growth, -100 = all killed); conditions: 10 µM unless noted
Compounds without any hit were thinned out: in the full panel of roughly 83,000, 20% have a hit.
MEASURED_ENDPOINT: growth (%)
Lab book: enter the figure in %, no units written.

Recall the reported growth of `CCCCNC1=C(OCC)C(=O)c2ccccc2C1=O` on KM12 colon and write it down.
93.7

# return growth of CCN1C(=O)N(CC)C2C1NN=c1s/c(=C\c3cc4ccccc4[nH]3)c(=O)n12 (stereo not given) (system: KM12 colon)
10.3

Report value only: growth, KM12 colon, `CCOC(=O)c1ccc2c(c1)c1c(C)c3ccncc3c(C)c1n2C`
0.78

Write down measured growth (KM12 colon) for this molecule. `Cc1ccc(C(=O)c2ccc(CC(=O)N/N=C/c3ccc(O)cc3O)n2C)cc1`
36.1

With KM12 colon as the test system, provide measured growth for this molecule: C[Se]C(=O)CC1=C2C=C(F)C=CC2/C(=C\c2ccc(S(C)=O)cc2)C1C (stereo not given)
50.1

Fetch value of growth on KM12 colon for `COc1ccc2c(c1)c(-c1ccc(-c3cn(C)c4ccc(OC)cc34)[nH]1)cn2C` .
9.21

// fetch growth for `O=C(OC[C@@H]1CO1)c1cccc2c(=O)c3ccccc3[nH]c12` ; system: KM12 colon
-65.5

Look up and report growth, with KM12 colon as system, for `CCCCCCCCn1ccc2cc(NC(=O)Cn3cc(CN4CCOCC4)nn3)ccc21`
93.3

Enter growth (test system KM12 colon) for COC(=O)C1=C(C(=O)Nc2cccnc2)C2OC1(C(Cc1ccccc1)Oc1ccccc1)C1OC21 (stereo not given)
96.8

Lab note: KM12 colon assay, enter growth for `COC(=O)Cc1nc(C#N)c(N(C)C)o1` here
94.7
